Entries annotated with measured Ba/F3 Ros1 L2026M (-IL-3) pIC50
- assay system: Ba/F3 cells containing Ros1 with a mutation at the gatekeeper residue (L2026M) (Homo sapiens, UniProt P08922, L2026M, cells depend on it, form not given)
- Sequence (P08922 whole entry L2026M, form open): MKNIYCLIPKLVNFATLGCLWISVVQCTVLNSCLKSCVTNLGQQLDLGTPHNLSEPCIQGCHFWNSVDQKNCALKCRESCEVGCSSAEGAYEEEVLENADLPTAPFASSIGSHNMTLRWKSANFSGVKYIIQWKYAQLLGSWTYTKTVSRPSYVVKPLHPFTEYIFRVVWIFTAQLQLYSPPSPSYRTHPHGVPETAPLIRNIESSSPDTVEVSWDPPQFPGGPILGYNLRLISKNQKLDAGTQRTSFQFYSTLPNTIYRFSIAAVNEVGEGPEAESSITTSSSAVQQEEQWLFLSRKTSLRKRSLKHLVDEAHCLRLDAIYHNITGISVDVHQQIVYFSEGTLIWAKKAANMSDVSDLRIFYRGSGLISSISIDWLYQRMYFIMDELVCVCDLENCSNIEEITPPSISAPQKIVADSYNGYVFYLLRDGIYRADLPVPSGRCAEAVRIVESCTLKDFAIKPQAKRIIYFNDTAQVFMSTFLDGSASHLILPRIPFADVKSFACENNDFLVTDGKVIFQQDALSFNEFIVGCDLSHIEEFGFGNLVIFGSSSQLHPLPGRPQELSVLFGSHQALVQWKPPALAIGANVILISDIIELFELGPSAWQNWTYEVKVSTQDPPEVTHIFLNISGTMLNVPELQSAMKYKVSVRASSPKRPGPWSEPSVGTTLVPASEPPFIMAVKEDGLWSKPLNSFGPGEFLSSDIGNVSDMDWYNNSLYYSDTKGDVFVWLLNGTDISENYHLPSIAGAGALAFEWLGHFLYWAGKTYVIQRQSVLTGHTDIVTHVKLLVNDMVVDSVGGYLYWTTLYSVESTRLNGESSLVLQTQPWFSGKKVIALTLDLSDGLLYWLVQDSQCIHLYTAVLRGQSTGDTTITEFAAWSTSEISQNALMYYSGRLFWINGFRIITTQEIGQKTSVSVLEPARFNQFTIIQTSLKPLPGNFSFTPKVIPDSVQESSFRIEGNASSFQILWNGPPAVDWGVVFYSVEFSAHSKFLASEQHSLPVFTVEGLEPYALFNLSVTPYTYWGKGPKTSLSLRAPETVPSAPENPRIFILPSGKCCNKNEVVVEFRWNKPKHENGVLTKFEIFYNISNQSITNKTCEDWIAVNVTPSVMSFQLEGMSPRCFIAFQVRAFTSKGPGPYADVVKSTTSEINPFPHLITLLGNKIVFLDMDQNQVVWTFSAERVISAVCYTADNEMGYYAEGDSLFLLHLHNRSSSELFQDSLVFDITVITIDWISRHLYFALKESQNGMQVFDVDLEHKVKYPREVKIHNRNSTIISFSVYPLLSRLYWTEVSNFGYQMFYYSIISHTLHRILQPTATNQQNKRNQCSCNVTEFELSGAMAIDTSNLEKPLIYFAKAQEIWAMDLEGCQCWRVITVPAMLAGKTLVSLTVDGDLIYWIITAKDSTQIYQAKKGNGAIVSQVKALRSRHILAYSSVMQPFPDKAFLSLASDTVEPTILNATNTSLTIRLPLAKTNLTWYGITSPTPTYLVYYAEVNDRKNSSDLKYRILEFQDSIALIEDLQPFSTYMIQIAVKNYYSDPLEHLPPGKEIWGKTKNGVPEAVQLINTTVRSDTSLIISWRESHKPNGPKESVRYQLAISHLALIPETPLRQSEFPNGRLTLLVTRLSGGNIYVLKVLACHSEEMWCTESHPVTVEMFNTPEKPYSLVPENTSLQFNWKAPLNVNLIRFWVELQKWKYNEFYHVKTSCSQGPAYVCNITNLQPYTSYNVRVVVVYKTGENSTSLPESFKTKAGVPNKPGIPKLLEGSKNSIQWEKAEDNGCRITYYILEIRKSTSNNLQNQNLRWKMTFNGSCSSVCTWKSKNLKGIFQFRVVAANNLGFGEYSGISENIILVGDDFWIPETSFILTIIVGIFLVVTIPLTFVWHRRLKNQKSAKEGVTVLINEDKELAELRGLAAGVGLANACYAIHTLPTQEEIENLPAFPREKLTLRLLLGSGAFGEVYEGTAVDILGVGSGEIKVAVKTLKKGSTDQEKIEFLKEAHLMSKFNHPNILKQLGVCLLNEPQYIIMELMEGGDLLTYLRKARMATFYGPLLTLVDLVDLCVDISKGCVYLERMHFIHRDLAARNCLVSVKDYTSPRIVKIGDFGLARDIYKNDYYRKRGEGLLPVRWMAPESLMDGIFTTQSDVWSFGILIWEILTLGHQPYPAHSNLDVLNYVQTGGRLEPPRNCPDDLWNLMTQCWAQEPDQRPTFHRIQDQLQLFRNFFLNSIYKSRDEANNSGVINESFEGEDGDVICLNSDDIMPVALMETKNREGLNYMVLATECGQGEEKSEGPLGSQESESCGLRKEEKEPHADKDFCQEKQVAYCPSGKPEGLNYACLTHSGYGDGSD
- procedure details: Ba/F3-Ros1 cell proliferation assay, L2026M gatekeeper mutant
- Type: cell-based, murine
- measurement parameters: without IL-3

compound	Ba/F3 Ros1 L2026M (-IL-3) pIC50
CC(C)c1ccc(COc2ccc(-c3c(-c4ccncc4)nn4c3C(=O)NCC4)cc2)cc1OCCO [Compound 89]	7.1

Consider O=C1NCCn2nc(-c3ccncn3)c(-c3ccc(OCc4ccc(C5CC5)nc4)cc3)c21 [Compound 168] . Its measured Ba/F3 Ros1 L2026M (-IL-3) pIC50 is 6.2

The reported Ba/F3 Ros1 L2026M (-IL-3) pIC50 of the compound CC(C)(C#N)c1ccc(COc2ccc(-c3c(-c4ccncc4)nn4c3C(=O)NCC4)cc2)cc1 [Compound 10] was 6.9

Kindly note the recorded Ba/F3 Ros1 L2026M (-IL-3) pIC50 for COc1cc(-c2c(-c3ccncc3)nn3c2C(=O)N(C)CC3)ccc1OCc1ccc(C(C)C)cc1 [Compound 33] , which is 7.4

// sample CC(C)c1ccc(COc2ccc(-c3c(-c4ccncc4)nn4c3C(=O)N(CC3COC(C)(C)O3)CC4)cc2)cc1 (stereo not drawn) [Compound 42] , its Ba/F3 Ros1 L2026M (-IL-3) pIC50 was 6.3

Field Ba/F3 Ros1 L2026M (-IL-3) pIC50 (entry CC(C)c1ccc(COc2ccc(-c3c(-c4ccncc4)nn4c3C(=O)N(CCO)CC4)c(F)c2)cc1 [Compound 21] ) reads 7.6
